# Tested on: LNCaP tumor xenograft-bearing CB17-SCID mice
# Type: in vivo, mouse
# Conditions used: 24 h p.i.
Measurement kind: Biodistribution Spleen (% ID/g)
Numbers only; they are read as % ID/g.

As a guide, the following entries are already answered.
Entry CC(C)(C)[Si](F)(c1ccc(C(=O)NC[C@@H](NC(=O)CN2CCN(CC(=O)[O-])CCN(CC(=O)[O-])CCN(CC(=O)[O-])CC2)C(=O)N[C@H](CCCCNC(=O)CCC(=O)NCCC[C@@H](NC(=O)CC[C@H](NC(=O)N[C@@H](CCc2nnn[nH]2)C(=O)O)C(=O)O)C(=O)O)C(=O)O)cc1)C(C)(C)C.[Lu+3] [^natLu/[^177Lu]Lu-11] — recorded Biodistribution Spleen = 0.11

Entry C#CC[C@H](NC(=O)N[C@@H](CCC(=O)N[C@H](CCCNC(=O)CCC(=O)NCCCC[C@@H](NC(=O)[C@@H](CNC(=O)c1ccc([Si](F)(C(C)(C)C)C(C)(C)C)cc1)NC(=O)CN1CCN(CC(=O)[O-])CCN(CC(=O)[O-])CCN(CC(=O)[O-])CC1)C(=O)O)C(=O)O)C(=O)O)C(=O)O.[Lu+3] [^natLu/[^177Lu]Lu-10] — recorded Biodistribution Spleen = 0.04

# context switch: different compound, same Biodistribution Spleen
Entry CC(C)(C)[Si](F)(c1ccc(C(=O)NC[C@@H](NC(=O)CN2CCN(CC(=O)[O-])CCN(CC(=O)[O-])CCN(CC(=O)[O-])CC2)C(=O)N[C@H](CCCCNC(=O)CCC(=O)NCCC[C@@H](NC(=O)CC[C@H](NC(=O)O[C@@H](CCC(=O)O)C(=O)O)C(=O)O)C(=O)O)C(=O)O)cc1)C(C)(C)C.[Lu+3] [^natLu/[^177Lu]Lu-3] — recorded Biodistribution Spleen = 0.09

* * *

# Tested on: LNCaP tumor xenograft-bearing CB17-SCID mice
# Format: in vivo, mouse
# Conditions used: 24 h p.i.
Measurement kind: Biodistribution Bone (% ID/g)
Numbers only; they are read as % ID/g.

Entry C#CC[C@H](NC(=O)N[C@@H](CCC(=O)N[C@H](CCCNC(=O)CCC(=O)NCCCC[C@@H](NC(=O)[C@@H](CNC(=O)c1ccc([Si](F)(C(C)(C)C)C(C)(C)C)cc1)NC(=O)CN1CCN(CC(=O)[O-])CCN(CC(=O)[O-])CCN(CC(=O)[O-])CC1)C(=O)O)C(=O)O)C(=O)O)C(=O)O.[Lu+3] [^natLu/[^177Lu]Lu-10] — recorded Biodistribution Bone = 0.03

Entry CC(C)(C)[Si](F)(c1ccc(C(=O)NC[C@@H](NC(=O)CN2CCN(CC(=O)[O-])CCN(CC(=O)[O-])CCN(CC(=O)[O-])CC2)C(=O)N[C@H](CCCCNC(=O)CCC(=O)NCCC[C@@H](NC(=O)CC[C@H](NC(=O)O[C@@H](CCC(=O)O)C(=O)O)C(=O)O)C(=O)O)C(=O)O)cc1)C(C)(C)C.[Lu+3] [^natLu/[^177Lu]Lu-3] — recorded Biodistribution Bone = 0.02

Others:
Entry CCCCCCC(NC(=O)C(CCC(=O)O)NC(=O)NC(CCC(=O)NC(CCCNC(=O)CCC(=O)NCCCCC(NC(=O)C(CNC(=O)c1ccc([Si](F)(C(C)(C)C)C(C)(C)C)cc1)NC(=O)CN1CCN(CC(=O)[O-])CCN(CC(=O)[O-])CCN(CC(=O)[O-])CC1)C(=O)O)C(=O)O)C(=O)O)C(=O)O.[Lu+3] (stereo not shown) [^natLu/[^177Lu]Lu-7] — recorded Biodistribution Bone = 0.04

Entry CC(C)(C)[Si](F)(c1ccc(C(=O)NC[C@@H](NC(=O)CN2CCN(CC(=O)[O-])CCN(CC(=O)[O-])CCN(CC(=O)[O-])CC2)C(=O)N[C@H](CCCCNC(=O)CCC(=O)NCCC[C@@H](NC(=O)CC[C@H](NC(=O)N[C@@H](CCc2nnn[nH]2)C(=O)O)C(=O)O)C(=O)O)C(=O)O)cc1)C(C)(C)C.[Lu+3] [^natLu/[^177Lu]Lu-11] — recorded Biodistribution Bone = 0.18

* * *

# System: LNCaP tumor xenograft-bearing CB17-SCID mice
# Type: in vivo, mouse
# Conditions used: 24 h p.i.
Measurement kind: Biodistribution Adrenals (% ID/g)
Numbers only; they are read as % ID/g.

Entry CC(C)(C)[Si](F)(c1ccc(C(=O)NC[C@@H](NC(=O)CN2CCN(CC(=O)[O-])CCN(CC(=O)[O-])CCN(CC(=O)[O-])CC2)C(=O)N[C@H](CCCCNC(=O)CCC(=O)NCCC[C@@H](NC(=O)CC[C@H](NC(=O)N[C@@H](CCc2nnn[nH]2)C(=O)O)C(=O)O)C(=O)O)C(=O)O)cc1)C(C)(C)C.[Lu+3] [^natLu/[^177Lu]Lu-11] — recorded Biodistribution Adrenals = 0.17

Entry CCCCCCC(NC(=O)C(CCC(=O)O)NC(=O)NC(CCC(=O)NC(CCCNC(=O)CCC(=O)NCCCCC(NC(=O)C(CNC(=O)c1ccc([Si](F)(C(C)(C)C)C(C)(C)C)cc1)NC(=O)CN1CCN(CC(=O)[O-])CCN(CC(=O)[O-])CCN(CC(=O)[O-])CC1)C(=O)O)C(=O)O)C(=O)O)C(=O)O.[Lu+3] (stereo not shown) [^natLu/[^177Lu]Lu-7] — recorded Biodistribution Adrenals = 0.03

Entry C#CC[C@H](NC(=O)N[C@@H](CCC(=O)N[C@H](CCCNC(=O)CCC(=O)NCCCC[C@@H](NC(=O)[C@@H](CNC(=O)c1ccc([Si](F)(C(C)(C)C)C(C)(C)C)cc1)NC(=O)CN1CCN(CC(=O)[O-])CCN(CC(=O)[O-])CCN(CC(=O)[O-])CC1)C(=O)O)C(=O)O)C(=O)O)C(=O)O.[Lu+3] [^natLu/[^177Lu]Lu-10] — recorded Biodistribution Adrenals = 0.02

# context switch: different compound, same Biodistribution Adrenals
Entry CC(C)(C)[Si](F)(c1ccc(C(=O)NC[C@@H](NC(=O)CN2CCN(CC(=O)[O-])CCN(CC(=O)[O-])CCN(CC(=O)[O-])CC2)C(=O)N[C@H](CCCCNC(=O)CCC(=O)NCCC[C@@H](NC(=O)CC[C@H](NC(=O)O[C@@H](CCC(=O)O)C(=O)O)C(=O)O)C(=O)O)C(=O)O)cc1)C(C)(C)C.[Lu+3] [^natLu/[^177Lu]Lu-3] — recorded Biodistribution Adrenals = 0.04

* * *

Measured Biodistribution Stomach, listed per entry.
# Test system: LNCaP tumor xenograft-bearing CB17-SCID mice
# Type: in vivo, mouse
# Conditions used: 24 h p.i.
Numbers only; they are read as % ID/g.

Measured Biodistribution Stomach for this entry CCCCCCC(NC(=O)C(CCC(=O)O)NC(=O)NC(CCC(=O)NC(CCCNC(=O)CCC(=O)NCCCCC(NC(=O)C(CNC(=O)c1ccc([Si](F)(C(C)(C)C)C(C)(C)C)cc1)NC(=O)CN1CCN(CC(=O)[O-])CCN(CC(=O)[O-])CCN(CC(=O)[O-])CC1)C(=O)O)C(=O)O)C(=O)O)C(=O)O.[Lu+3] (centres unmarked) [^natLu/[^177Lu]Lu-7] on LNCaP tumor xenograft-bearing CB17-SCID mice: 0.04

Measured Biodistribution Stomach for this entry CC(C)(C)[Si](F)(c1ccc(C(=O)NC[C@@H](NC(=O)CN2CCN(CC(=O)[O-])CCN(CC(=O)[O-])CCN(CC(=O)[O-])CC2)C(=O)N[C@H](CCCCNC(=O)CCC(=O)NCCC[C@@H](NC(=O)CC[C@H](NC(=O)O[C@@H](CCC(=O)O)C(=O)O)C(=O)O)C(=O)O)C(=O)O)cc1)C(C)(C)C.[Lu+3] [^natLu/[^177Lu]Lu-3] on LNCaP tumor xenograft-bearing CB17-SCID mice: 0.06

Measured Biodistribution Stomach for this entry CC(C)(C)[Si](F)(c1ccc(C(=O)NC[C@@H](NC(=O)CN2CCN(CC(=O)[O-])CCN(CC(=O)[O-])CCN(CC(=O)[O-])CC2)C(=O)N[C@H](CCCCNC(=O)CCC(=O)NCCC[C@@H](NC(=O)CC[C@H](NC(=O)N[C@@H](CCc2nnn[nH]2)C(=O)O)C(=O)O)C(=O)O)C(=O)O)cc1)C(C)(C)C.[Lu+3] [^natLu/[^177Lu]Lu-11] on LNCaP tumor xenograft-bearing CB17-SCID mice: 0.12

Measured Biodistribution Stomach for this entry CSCC[C@H](NC(=O)CC[C@H](NC(=O)N[C@@H](CCC(=O)N[C@H](CCCNC(=O)CCC(=O)NCCCC[C@@H](NC(=O)[C@@H](CNC(=O)c1ccc([Si](F)(C(C)(C)C)C(C)(C)C)cc1)NC(=O)CN1CCN(CC(=O)[O-])CCN(CC(=O)[O-])CCN(CC(=O)[O-])CC1)C(=O)O)C(=O)O)C(=O)O)C(=O)O)C(=O)O.[Lu+3] [^natLu/[^177Lu]Lu-5] on LNCaP tumor xenograft-bearing CB17-SCID mice: 0.14

# context switch: different compound, same Biodistribution Stomach
Measured Biodistribution Stomach for this entry C#CC[C@H](NC(=O)N[C@@H](CCC(=O)N[C@H](CCCNC(=O)CCC(=O)NCCCC[C@@H](NC(=O)[C@@H](CNC(=O)c1ccc([Si](F)(C(C)(C)C)C(C)(C)C)cc1)NC(=O)CN1CCN(CC(=O)[O-])CCN(CC(=O)[O-])CCN(CC(=O)[O-])CC1)C(=O)O)C(=O)O)C(=O)O)C(=O)O.[Lu+3] [^natLu/[^177Lu]Lu-10] on LNCaP tumor xenograft-bearing CB17-SCID mice: 0.12
